# targetDesc: CXCR2 (Homo sapiens (Human), UniProt P25025)
# Sequence (P25025 whole entry): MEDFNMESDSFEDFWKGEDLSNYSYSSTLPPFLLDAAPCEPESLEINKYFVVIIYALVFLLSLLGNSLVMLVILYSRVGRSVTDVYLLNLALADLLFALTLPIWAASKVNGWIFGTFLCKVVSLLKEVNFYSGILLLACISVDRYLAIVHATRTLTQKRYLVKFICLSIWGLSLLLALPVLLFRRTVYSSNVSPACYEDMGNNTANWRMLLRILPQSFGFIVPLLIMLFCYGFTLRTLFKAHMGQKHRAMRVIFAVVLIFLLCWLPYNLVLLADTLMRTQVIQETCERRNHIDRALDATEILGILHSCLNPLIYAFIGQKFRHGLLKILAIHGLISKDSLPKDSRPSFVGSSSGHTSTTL
# testProtocol: Inhibition of CXCR2-mediated (GROα-induced) intracellular calcium release in human neutrophils (whole cell assay, Pharmacology Example 1)
# Assay type: cell-based
# conditionSummary: GROα 25 nM, read-out: IC50, inhibition of CXCR2-mediated intracellular calcium release
pIC50: −log10 of the molar value.
measuredParameter: pIC50

INSERT INTO results (itemsmiles, measuredparameter, valueobserved) VALUES
  ('CN(Cc1ccccc1O)c1ccc(C(=O)Nc2ccc(F)cc2)cn1', 'pIC50', 6.23);

---

# targetDesc: CXCR2 (Homo sapiens (Human), UniProt P25025)
# testProtocol: Inhibition of CXCR2-mediated (GROα-induced) intracellular calcium release in human neutrophils (whole cell assay, Pharmacology Example 1)
# Format: cell-based
# conditionSummary: GROα 25 nM, value in synthesis example, read-out: IC50 in whole cell assay (Pharmacology Example 1)
Decision: IC50 beneath 600 nM gives y; IC50 meeting or exceeding 600 nM gives n.

INSERT INTO assay_data (itemsmiles, classlabel) VALUES
  ('CN(Cc1ccc(B(O)O)cc1)c1ccc(C(=O)Nc2ccc(F)cc2)cn1', 'y'),
  ('CN(Cc1ccccc1B(O)O)c1ccc(C(=O)Nc2ccc(F)cc2)cn1', 'n'),
  ('O=C(Nc1ccc(F)cc1)c1ccc(NCc2ccccc2B(O)O)nc1', 'n'),
  ('CN(Cc1ccc(B(O)O)cc1)c1ncc(C(=O)Nc2ccc(F)cc2)cn1', 'y');
